B1: library; numbered along this chain (parent)
chain: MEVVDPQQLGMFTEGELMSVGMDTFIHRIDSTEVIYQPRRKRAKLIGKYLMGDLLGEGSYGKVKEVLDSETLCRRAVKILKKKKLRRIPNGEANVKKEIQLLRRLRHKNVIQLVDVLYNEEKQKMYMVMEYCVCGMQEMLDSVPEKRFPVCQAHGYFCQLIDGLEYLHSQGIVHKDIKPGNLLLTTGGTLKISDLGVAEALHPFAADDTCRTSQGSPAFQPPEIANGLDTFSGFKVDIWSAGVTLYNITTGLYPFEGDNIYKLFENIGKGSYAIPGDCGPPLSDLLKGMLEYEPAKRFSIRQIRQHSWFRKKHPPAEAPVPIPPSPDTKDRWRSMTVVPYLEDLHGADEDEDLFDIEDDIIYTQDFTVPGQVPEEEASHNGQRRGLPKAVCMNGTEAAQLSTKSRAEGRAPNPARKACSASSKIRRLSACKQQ

# Variants of: B1
# assay.overview: STK11 functional score (HeLa growth suppression), rescaled enrichment; synonymous median = 1, nonsense median = 0 (normalised score)
# experimental.context: with HeLa; variant type: missense

- variant.notation: "T244E"
  STK11 functional score: -0.168
- variant.notation: "C391L"
  STK11 functional score: 1.54
- variant.notation: "G56P"
  STK11 functional score: 0.136
- variant.notation: "V173R"
  STK11 functional score: 0.37
- variant.notation: "Q302E"
  STK11 functional score: 0.957
- variant.notation: "R297L"
  STK11 functional score: -0.121
- variant.notation: "E223Y"
  STK11 functional score: 1
- variant.notation: "G10P"
  STK11 functional score: 1.18
- variant.notation: "L400E"
  STK11 functional score: 1.58
- variant.notation: "S271F"
  STK11 functional score: 1.03
- variant.notation: "Q137H"
  STK11 functional score: 0.922
- variant.notation: "V63I"
  STK11 functional score: 1.45
- variant.notation: "P326M"
  STK11 functional score: 1.45
- variant.notation: "R383N"
  STK11 functional score: 1.5
- variant.notation: "R87V"
  STK11 functional score: 1.08
- variant.notation: "V338C"
  STK11 functional score: 0.965
- variant.notation: "K416L"
  STK11 functional score: 0.986
- variant.notation: "D162M"
  STK11 functional score: 1.62
- variant.notation: "G279F"
  STK11 functional score: 1.27
- variant.notation: "I35E"
  STK11 functional score: 1.66
- variant.notation: "K64A"
  STK11 functional score: 1.59
- variant.notation: "S325W"
  STK11 functional score: 0.629

Data provenance: the supplement of paper PMC12338614
